biological target: recombinant human progesterone receptor A (hPR-A) (Homo sapiens, UniProt P06401); experiment: Progestin receptor binding assay, hPR-A; conditions: relative binding affinity, progesterone = 100
Sequence (P06401 165-933): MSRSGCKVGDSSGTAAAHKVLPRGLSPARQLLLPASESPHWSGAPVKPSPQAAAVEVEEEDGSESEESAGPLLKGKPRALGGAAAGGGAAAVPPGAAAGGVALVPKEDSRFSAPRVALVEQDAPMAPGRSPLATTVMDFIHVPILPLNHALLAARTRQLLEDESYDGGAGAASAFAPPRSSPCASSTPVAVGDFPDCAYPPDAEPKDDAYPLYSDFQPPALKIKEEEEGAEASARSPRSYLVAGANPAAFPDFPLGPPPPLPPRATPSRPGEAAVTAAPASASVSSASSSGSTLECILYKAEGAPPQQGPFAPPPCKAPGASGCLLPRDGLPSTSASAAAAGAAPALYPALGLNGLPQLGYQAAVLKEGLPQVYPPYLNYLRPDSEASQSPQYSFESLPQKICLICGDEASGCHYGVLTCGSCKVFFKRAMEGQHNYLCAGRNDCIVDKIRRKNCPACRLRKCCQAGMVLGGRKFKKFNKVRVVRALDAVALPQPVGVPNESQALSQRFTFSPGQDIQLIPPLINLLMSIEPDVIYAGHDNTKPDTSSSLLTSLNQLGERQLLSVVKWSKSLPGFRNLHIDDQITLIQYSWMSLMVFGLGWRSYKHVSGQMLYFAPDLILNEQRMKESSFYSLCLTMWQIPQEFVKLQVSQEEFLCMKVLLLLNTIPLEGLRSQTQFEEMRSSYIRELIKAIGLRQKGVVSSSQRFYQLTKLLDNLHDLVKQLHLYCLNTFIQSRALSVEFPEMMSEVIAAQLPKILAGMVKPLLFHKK
Below is a list of entries, each paired with its recorded hPR-A RBA value.
endpoint: hPR-A RBA (%)

- molecule: "C[C@]12CC3(CC3)C(=O)C=C1[C@@H]1CC1C1C2CC[C@@]2(C)C1[C@@H]1CC1[C@@]21CCC(=O)O1 (some centres unmarked) [Compound (IIIe)]"
  assayed_system: "recombinant human progesterone receptor A (hPR-A) (Homo sapiens, UniProt P06401)"
  endpoint: "hPR-A RBA"
  qualifier_symbol: "<"
  observed_result: 0.6
- molecule: "C[C@]12CCC(=O)C=C1C1(CC1)CC1C2CC[C@@]2(C)C1[C@@H]1CC1[C@@]21CCC(=O)O1 (some centres unmarked) [Compound (IVa)]"
  assayed_system: "recombinant human progesterone receptor A (hPR-A) (Homo sapiens, UniProt P06401)"
  endpoint: "hPR-A RBA"
  qualifier_symbol: "="
  observed_result: 149
- molecule: "C[C@@]12C(=CC(=O)C3C[C@@H]31)C1(CC1)CC1C2CC[C@@]2(C)C1[C@@H]1CC1[C@@]21CCC(=O)O1 (some centres unmarked) [Compound (IVc)]"
  assayed_system: "recombinant human progesterone receptor A (hPR-A) (Homo sapiens, UniProt P06401)"
  endpoint: "hPR-A RBA"
  qualifier_symbol: "="
  observed_result: 78
- molecule: "C[C@]12C=CC(=O)C=C1C1(CC1)CC1C2CC[C@@]2(C)C1[C@@H]1CC1[C@@]21CCC(=O)O1 (some centres unmarked) [Compound (IVb)]"
  assayed_system: "recombinant human progesterone receptor A (hPR-A) (Homo sapiens, UniProt P06401)"
  endpoint: "hPR-A RBA"
  qualifier_symbol: "="
  observed_result: 38
- molecule: "C[C@]12CCC(=O)C=C1[C@@H]1C[C@@H]1[C@H]1[C@@H]3[C@@H]4C[C@@H]4[C@@]4(CCC(=O)O4)[C@@]3(C)CC[C@@H]12 [Drospirenone]"
  assayed_system: "recombinant human progesterone receptor A (hPR-A) (Homo sapiens, UniProt P06401)"
  endpoint: "hPR-A RBA"
  qualifier_symbol: "="
  observed_result: 23
